# reported z-score; entries follow
molecular target: Luciferin 4-monooxygenase (Photinus pyralis) (UniProt P08659); assay: firefly luciferase enzyme inhibitors, primary screen, biochemical, luminescence, purified enzyme, 2006 set (AID 1141); conditions: SteadyGlo luminescence, 30 min, higher = more signal, called active from +8 up or from −8 down;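 further: cell-free assay with purified firefly luciferase at 100 ng per well in PBS; test concentration not given here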
Sequence (P08659 whole entry, looked up): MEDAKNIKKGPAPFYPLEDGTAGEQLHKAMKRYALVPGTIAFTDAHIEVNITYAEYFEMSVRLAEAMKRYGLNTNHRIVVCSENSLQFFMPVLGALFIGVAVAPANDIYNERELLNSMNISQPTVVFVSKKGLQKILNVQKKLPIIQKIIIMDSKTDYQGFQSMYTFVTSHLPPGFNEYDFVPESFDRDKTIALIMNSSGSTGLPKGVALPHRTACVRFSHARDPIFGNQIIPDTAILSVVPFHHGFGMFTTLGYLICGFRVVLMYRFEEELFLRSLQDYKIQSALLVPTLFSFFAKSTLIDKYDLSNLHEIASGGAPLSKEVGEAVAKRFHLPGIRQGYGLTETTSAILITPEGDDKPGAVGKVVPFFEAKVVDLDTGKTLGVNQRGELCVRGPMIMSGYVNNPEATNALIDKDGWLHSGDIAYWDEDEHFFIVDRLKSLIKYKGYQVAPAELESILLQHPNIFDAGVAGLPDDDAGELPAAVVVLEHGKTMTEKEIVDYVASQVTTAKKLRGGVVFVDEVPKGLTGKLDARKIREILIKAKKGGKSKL

{"compound": "CC=CC(O)C1C=CC2C(=O)N(C)C(=O)C2N1N1CCCCC1 (stereo not given)", "experimental-system": "Luciferin 4-monooxygenase (Photinus pyralis) (UniProt P08659)", "z-score": -0.451}
{"compound": "COc1ccc(NN2C(C(O)c3ccccn3)C=CC3C(=O)N(C4CCCCC4)C(=O)C32)cc1 (stereo not given)", "experimental-system": "Luciferin 4-monooxygenase (Photinus pyralis) (UniProt P08659)", "z-score": -2.74}
{"compound": "CN(C)CCCNC(=O)[C@@H]1c2ccccc2C(=O)N(CC23CC4CC(CC(C4)C2)C3)[C@H]1c1ccc(CO)cc1", "experimental-system": "Luciferin 4-monooxygenase (Photinus pyralis) (UniProt P08659)", "z-score": 0.717}
{"compound": "COC(=O)[C@H](Cc1ccccc1)N1CC(/C=C/C2CC2)=C[C@@H]1[C@@H](O)Cc1ccccc1", "experimental-system": "Luciferin 4-monooxygenase (Photinus pyralis) (UniProt P08659)", "z-score": -0.186}
{"compound": "O=C1NC(=O)C2C1C=CC(C(O)c1c(F)cccc1Cl)N2Nc1ccccn1 (stereo not given)", "experimental-system": "Luciferin 4-monooxygenase (Photinus pyralis) (UniProt P08659)", "z-score": -0.194}
